Just for reference, patent US4735792A is where these values come from.

- TEST_DESCRIPTION: Tissue distribution of radioactivity after intravenous administration in rats
- Assay type: in vivo, female Fischer 344 rats (printed "femal Fischer 344 rats")
- CONDITIONS_USED: rat, heart, iv, Table 1; heart; 5 min after i.v. injection; read-out: Mean percent injected dose/gm, Heart
OBSERVED_PROPERTY: tissue uptake at 5 min (%ID/g)
Numeric answer only, unit %ID/g assumed.

Inquiry: Param item = O=C1C=CC(=O)N1c1ccc([125I])cc1 [[^125 I]4, N-(p-[^125 I]iodophenyl)maleimide] ; retrieve measured tissue uptake at 5 min.
Reply text: 1.45

====

- TEST_DESCRIPTION: Binding to human γ-globulin (activity remaining in aqueous portion after ether extraction; TLC)
- CONDITIONS_USED: gamma-globulin in pbs; human γ-globulin 6.7 mg/ml in PBS, 30 min at 37° C., after ether extraction; read-out: activity remaining in the aqueous portion (bound with protein), γ-globulin (converted)
- Description: Samples of bovine albumin (45 mg/ml, 10 ml) and human γ-globulin (6.7 mg/ml. 10 ml) were prepared in phosphate buffer and 0.15 NaCl solution (PBS). A 10 ml sample of PBS was used as control. [^125 I]-IPM (10 μCi) in 100 λ DMSO was added to each sample and incubated for 30 min at 37° C. The samples were repeatedly extracted with ethyl ether. The unbound activity as [^125 I]-IPM was extracted with ethyl ether. The activity remaining in the aqueous portion was considered to be bound with the proteins.
OBSERVED_PROPERTY: fraction unbound at 0.5 h

Inquiry: Param item = O=C1C=CC(=O)N1c1ccc([125I])cc1 [[^125 I]4, N-(p-[^125 I]iodophenyl)maleimide] ; retrieve measured fraction unbound at 0.5 h.
Reply text: ~0.6
